Reported GI50 values for a set of molecules
system: NCI-H226; assay: NCI tumour cell line growth inhibition, 48 h
Activity calls are given as the source filed them. No stated cut-off is given here; in the data, active = GI50 up to about 1.1 µM and inactive = higher.

Lookup: Report GI50 for COc1cccc(/C=C2\N=C(c3ccccc3)OC2=O)c1 tested on NCI-H226.
Found: 37.8 µM (inactive)

Lookup: Report GI50 for [O-][N+]1=NC(c2ccccc2)=C1c1ccccc1 tested on NCI-H226.
Found: > 50 µM (inactive)

Lookup: Report GI50 for COc1cc(C2C(Cl)C(=O)N2NC(=O)c2ccc(NC(C)=O)cc2OC)ccc1O (stereo not given) tested on NCI-H226.
Found: 10.6 µM (inactive)

Lookup: Report GI50 for COC(=O)C(Cc1nc2ccc(Cl)cc2nc1O)C(=O)C(=O)Nc1ccccc1[N+](=O)[O-] (stereo not given) tested on NCI-H226.
Found: > 100 µM (inactive)

Lookup: Report GI50 for COC1=C(OC)CCC(/C(C#N)=C/c2ccc(OC)c(OC)c2)=C1 tested on NCI-H226.
Found: > 100 µM (inactive)

Lookup: Report GI50 for CCOC(=O)C1([Se]c2ccccc2)CCCC1=O (stereo not given) tested on NCI-H226.
Found: 29 µM (inactive)

Lookup: Report GI50 for CN(C)c1ccc(C(=O)NCCCCCCC(=O)NO)cc1 tested on NCI-H226.
Found: 2.75 µM (inactive)

Lookup: Report GI50 for Clc1ccc2c(SCC3CO3)c3ccccc3nc2c1 (stereo not given) tested on NCI-H226.
Found: 22.9 µM (inactive)

Lookup: Report GI50 for N#C/C(=C1\OC(=N)C(c2ccccc2)C1=O)c1ccccc1 (stereo not given) tested on NCI-H226.
Found: > 64.3 µM (inactive)

Lookup: Report GI50 for Cc1ccc(CC2(OCCN(C)C)CCC(C(C)(C)C)CC2)cc1 (stereo not given) tested on NCI-H226.
Found: 5.28 µM (inactive)

Lookup: Report GI50 for Cc1ccc(S(=O)(=O)/N=C2/N(C)CCCS2(=O)=O)cc1 tested on NCI-H226.
Found: > 100 µM (inactive)

Lookup: Report GI50 for CC1C(O)[C@@]2(OC[C@@]34C(=O)CC5(O)[C@H](CCC6Cc7nc8c(nc7C[C@]65C)CC5CC[C@@H]6C7=C[C@H]9O[C@@]%10(O[C@@](C)(CO)C[C@@H]%10O)C(C)[C@@]9(O)[C@]7(C)[C@@H](O)CC6[C@]5(C)C8)C3=CC[C@H]4C2C)OC1(C)C (stereo not given in full) tested on NCI-H226.
Found: > 3.55 µM (inactive)

Lookup: Report GI50 for COC(=O)CC1NC(=O)[C@@H]1C(C)O (stereo not given in full) tested on NCI-H226.
Found: > 100 µM (inactive)

Lookup: Report GI50 for COc1ccc(C2C(=O)c3c(OC)cc(OC)cc3OC2c2cccnc2)cc1 (stereo not given) tested on NCI-H226.
Found: 43.8 µM (inactive)

Lookup: Report GI50 for CCOC(=O)/C(C(N)=O)=C(/O)c1cnccn1 tested on NCI-H226.
Found: > 100 µM (inactive)

* * *

system: KM12; experiment: NCI tumour cell line growth inhibition, 48 h
Active and inactive are the calls of the source. No stated cut-off is given here; in the data, active = GI50 up to about 1.1 µM and inactive = higher.
Reported GI50 values for a set of molecules

• O=C1c2ccccc2C(=O)c2sc(Nc3ccc(Cl)cc3)nc21 = 2.04 µM (inactive)

Turning to the following molecule.
Lookup: I'd like to know its GI50. The molecule in question is CN(C)CCCOc1ccc(/C=C2/CCC/C(=C/c3ccc(OCCCN(C)C)cc3)C2=O)cc1
Found: 1.32 µM (inactive)

* * *

test system: MDA-MB-435; assay: NCI tumour cell line growth inhibition, 48 h
The source made the active and inactive calls. Cut-off read from the data, not from the text of the source: active = GI50 up to about 1.1 µM and inactive = higher.
measured_quantity: GI50

Lookup: I'd like to know its GI50. The molecule in question is Cn1c(=O)cc(NCc2ccc(Cl)cc2)[nH]c1=O
Found: > 100 µM (inactive)

Lookup: I'd like to know its GI50. The molecule in question is CCOc1ccccc1/N=N/C1C(=O)N(C(=O)CC(=O)Nc2ccccc2OC)N=C1C (centres undefined)
Found: > 100 µM (inactive)

Lookup: I'd like to know its GI50. The molecule in question is COc1ccc2c(c1O)[C@@]13C=C(O)C(=O)C=C1[C@@H](C2)N(C)CC3
Found: 40.6 µM (inactive)

Lookup: I'd like to know its GI50. The molecule in question is Cc1cccc2c1C(=O)[C@@](C)([C@]1(C)Nc3cccc(C)c3C1=O)N2
Found: 31.1 µM (inactive)

Lookup: I'd like to know its GI50. The molecule in question is OCC1OC(c2ccccc2)CC1O (centres undefined)
Found: > 100 µM (inactive)

* * *

test system: SNB-75; assay: NCI tumour cell line growth inhibition, 48 h
Active and inactive are the calls of the source. Rule as the data show it: active = GI50 up to about 1.1 µM and inactive = higher.
Pick from active, inactive when you respond.

- CCNc1ncnc2c1nnn2CC: inactive
- CN(C)c1ccc(C(=O)NCCCCCCC(=O)NO)cc1: active
- Nc1nc(Cl)cc(NCC(O)CO)n1 (stereo not given): inactive
- CCC(O)(c1ccc(OC)cc1)C(c1ccc(OCc2ccccc2)cc1)c1ccc(OCc2ccccc2)cc1 (stereo not given): inactive
- CCOc1ccc(-n2c(=O)n3c(Nc4ccc(Cl)cc4)nc4c(c(=O)n(C)c(=O)n4C)n3c2=O)cc1: inactive
- OCCN1CN(c2nc(N3CN(CCO)C3)nc(N3CN(CCO)C3)n2)C1: inactive
- CC(=O)OC1COC(n2ccc3cc(Br)c([N+](=O)[O-])cc32)C(OC(C)=O)C1OC(C)=O (stereo not given): inactive
- CCOC(=O)/C(=C\NC#N)c1nc2ccccc2[nH]1: inactive
- C#CCCOC(=O)CC1=C(C)/C(=C/c2ccc([S+](C)[O-])cc2)c2ccc(F)cc21 (stereo not given): inactive

Please look at the following compound next.
Lookup: What call does the record list for CCc1c(OC(C)=O)c2c(NC3OCC(OC(C)=O)C(OC(C)=O)C3OC(C)=O)nc(SC)nc2oc1=O (stereo not given) ?
Found: inactive

* * *

system: OVCAR-5; experiment: NCI tumour cell line growth inhibition, 48 h
Activity calls are given as the source filed them. Cut-off read from the data, not from the text of the source: active = GI50 up to about 1.1 µM and inactive = higher.
Pick from class 1 (active), class 0 (inactive) when you respond.

Previously resolved entries follow.
- CC1=Nc2c(ccc3c2C(=O)c2ccccc2C3=O)NC(c2ccncc2)C1 (configuration not stated): class 0
- COc1ccc2c(c1)O[C@@H]1[C@@H](OC3OC(CO)C(O)C(O)C3O)Oc3cc(OC)c(OC)cc3[C@]1(O)C2=O (some centres not stated): class 0
- COC(OC)C1OCC(n2cc(F)c(=O)[nH]c2=O)C1O (configuration not stated): class 0

Lookup: What call does the record list for N=C(N)C(/N=N\c1ccccc1)C(N)=O (configuration not stated) ?
Found: class 0

Lookup: What call does the record list for CN(/N=C\c1ccc2ccccc2c1)C1=NCCCCN1 ?
Found: class 0

Lookup: What call does the record list for C=CCC1(CN(C)C)CC/C(=C\c2ccc3c(c2)OCO3)C1=O (configuration not stated) ?
Found: class 0

Lookup: What call does the record list for O=C1/C(=C\c2ccco2)Oc2ccccc21 ?
Found: class 0

Lookup: What call does the record list for S=c1sc2sc(=S)sc2s1 ?
Found: class 0

Lookup: What call does the record list for N#C/C(=C1\OC(=N)C(c2ccccc2)C1=O)c1ccccc1 (configuration not stated) ?
Found: class 0

Lookup: What call does the record list for CC(O)(Cc1ccccc1C#N)Cc1ccccc1C#N ?
Found: class 0

Lookup: What call does the record list for CN(C)c1ccc(C(=O)NCCCCCCC(=O)NO)cc1 ?
Found: class 1

Lookup: What call does the record list for Cc1ccc2c(O)cc(-c3csc4ccccc34)nc2n1 ?
Found: class 1

* * *

system: TK-10; experiment: NCI tumour cell line growth inhibition, 48 h
Calls of active or inactive are those of the source. Cut-off read from the data, not from the text of the source: active = GI50 up to about 1.1 µM and inactive = higher.
Pick from active, inactive when you respond.

Lookup: What call does the record list for O=C(CNc1ccc([N+](=O)[O-])cc1)Nn1c(-c2ccccc2)nc2ccccc2c1=O ?
Found: inactive

* * *

test system: NCI-H23; test: NCI tumour cell line growth inhibition, 48 h
Active and inactive are the calls of the source. No stated cut-off is given here; in the data, active = GI50 up to about 1.1 µM and inactive = higher.
Pick from class 1 = active, class 0 = inactive when you respond.

* Nc1ccc([As](=O)(O)O)cc1 | class 0
* CC(CC(C#N)(c1ccccc1)c1ccccc1)N1CCCCC1 (centres undefined) | class 0
* CC(=O)O[C@H]1C(=O)[C@@]2(C)[C@H]([C@H](OC(=O)c3ccccc3)[C@]3(O)C[C@H](OC(=O)[C@H](O)[C@@H](NC(=O)c4ccccc4)c4ccccc4C)C(C)=C1C3(C)C)[C@]1(OC(C)=O)CO[C@@H]1C[C@@H]2O | class 1

Lookup: What call does the record list for Cc1c(NC(=O)CCCl)c(=O)oc2c(C)c3occc(=O)c3cc12 ?
Found: class 0

Lookup: What call does the record list for Clc1ccc2c(SCC3CO3)c3ccccc3nc2c1 (centres undefined) ?
Found: class 0

* * *

system: COLO 205; experiment: NCI tumour cell line growth inhibition, 48 h
Active and inactive are the calls of the source. Cut-off read from the data, not from the text of the source: active = GI50 up to about 1.1 µM and inactive = higher.
Pick from label 1 (active), label 0 (inactive) when you respond.

Lookup: What call does the record list for C[n+]1c2ccccc2c(CNC(CCC(N)=O)C(=O)O)c2ccccc21 (stereo unspecified) ?
Found: label 1
